// reported GI50 for each item listed
# System: HepG2
# test: Antiproliferative activity against human HepG2 cells expressing wild-type P53 measured after 72 hrs by MTS assay
# Format: functional
# protocol.conditions: HepG2, 72 h
# number then unit; no other words

Below, each entry is followed by its recorded GI50 result.
O=C1Nc2ccc(Br)cc2[C@]12ON=C(c1cccc(Cl)c1)N2c1cccc(Cl)c1F; 1200 nM
O=C1Nc2ccc(Br)cc2[C@]12ON=C(c1cccc(Br)c1)N2c1cccc(Br)c1; 2200 nM
O=C1Nc2ccc(Br)cc2[C@]12ON=C(c1cccc(Cl)c1)N2c1ccc(F)c(Cl)c1; 4000 nM

Quick note, GI50 for O=C1Nc2ccc(Cl)cc2[C@]12ON=C(c1cccc(Cl)c1)N2c1cccc(Cl)c1 landed at 3300 nM

###

# test: Antiproliferative activity against human p53 +/+ HCT116 cells measured after 72 hrs by MTS assay
# Type: functional
# protocol.conditions: HCT-116, 72 h
Note to self: GI50 under 7 µM means MET, ties and anything higher get NOT MET.

Use these answered entries as a reference point.
O=C1Nc2ccc(Cl)cc2[C@]12ON=C(c1ccc(Cl)cc1)N2c1ccc(Cl)cc1; NOT MET
O=C1Nc2ccccc2[C@]12ON=C(c1cccc(Cl)c1)N2c1ccc(Cl)cc1; NOT MET
O=C1Nc2ccc(Br)cc2[C@]12ON=C(c1cccc(Cl)c1)N2c1ccc(F)c(Cl)c1; MET
O=C1Nc2ccc(Br)cc2[C@]12ON=C(c1cccc(Br)c1)N2c1cccc(Br)c1; MET

Now turn to the next compound.
Q: Field: below-cutoff. Rule: recorded GI50 strictly less than 7 µM. Subject: O=C1Nc2ccccc2[C@]12ON=C(c1ccccc1)N2c1ccc(F)cc1
A: NOT MET

###

# test: Antiproliferative activity against human p53 +/+ HCT116 cells measured after 72 hrs by MTS assay
# Assay type: functional
# protocol.conditions: HCT-116, 72 h
Note to self: GI50 under 30 µM means met, ties and anything higher get not met.

Use these answered entries as a reference point.
O=C1Nc2ccc(Br)cc2[C@]12ON=C(c1cccc(Cl)c1)N2c1cccc(Cl)c1F; met
O=C1Nc2ccccc2[C@]12ON=C(c1ccccc1)N2c1cccc(Cl)c1; not met
O=C1Nc2ccc(Br)cc2[C@]12ON=C(c1cccc(Cl)c1F)N2c1cccc(Cl)c1; met
O=C1Nc2ccccc2[C@]12ON=C(c1ccc(Cl)cc1)N2c1ccc(Cl)cc1; not met
O=C1Nc2ccc(Cl)cc2[C@]12ON=C(c1ccccc1)N2c1ccccc1; not met

Q: Field: below-cutoff. Rule: recorded GI50 strictly less than 30 µM. Subject: O=C1Nc2ccc(Br)cc2[C@]12ON=C(c1ccccc1)N2c1cccc(Cl)c1
A: met

Q: Field: below-cutoff. Rule: recorded GI50 strictly less than 30 µM. Subject: O=C1Nc2ccc(Br)cc2[C@]12ON=C(c1ccccc1)N2c1ccccc1
A: met

Q: Field: below-cutoff. Rule: recorded GI50 strictly less than 30 µM. Subject: O=C1Nc2ccc(Cl)cc2[C@]12ON=C(c1ccccc1)N2c1ccc(Cl)cc1
A: met

###

// reported GI50 for each item listed
# Test system: HepG2
# test: Antiproliferative activity against human HepG2 cells expressing wild-type P53 measured after 72 hrs by MTS assay
# Type: functional
# protocol.conditions: HepG2, 72 h
The answer is to be given in µM; state only the numeric part.

O=C1Nc2ccc(Br)cc2[C@]12ON=C(c1ccc(Cl)cc1)N2c1cccc(Cl)c1; 4.1
O=C1Nc2ccc(Br)cc2[C@]12ON=C(c1cccc(Cl)c1)N2c1cccc(Cl)c1; 2.1
O=C1Nc2cc(Cl)ccc2[C@]12ON=C(c1cccc(Cl)c1)N2c1cccc(Cl)c1; 4.4
O=C1Nc2ccc(Br)cc2[C@]12ON=C(c1cccc(Cl)c1F)N2c1cccc(Cl)c1; 2.5

Let us examine a further case.
Quick note, GI50 for O=C1Nc2ccc(Br)cc2[C@]12ON=C(c1ccccc1)N2c1cccc(Cl)c1 landed at 3.5
